B1: POU domain, class 2, transcription factor 2, residues 200 to 269; numbered along this chain, P09086 (parent)
chain: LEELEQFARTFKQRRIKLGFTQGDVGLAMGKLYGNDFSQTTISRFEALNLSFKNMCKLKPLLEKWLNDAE

- Variants of: B1
- PROTOCOL DETAILS: abundance fitness (aPCA) (normalised: wild type 0, dead -1); higher = more abundant; growth selection in yeast, the domain comes from the species named
- CONDITION INFO: Homo sapiens
RESULT TYPE: abundance fitness
Please reply with the value in numeric form only.

## Input What value of abundance fitness has been reported for the following variant? `K17T`
## Output -0.07

## Input What value of abundance fitness has been reported for the following variant? `L27I`
## Output -0.069

## Input What value of abundance fitness has been reported for the following variant? `T40P`
## Output -0.072

## Input What value of abundance fitness has been reported for the following variant? `I16P`
## Output -0.895

## Input What value of abundance fitness has been reported for the following variant? `L1C`
## Output -0.496

## Input What value of abundance fitness has been reported for the following variant? `G19K`
## Output -0.092

## Input What value of abundance fitness has been reported for the following variant? `E70D`
## Output 0.054

## Input What value of abundance fitness has been reported for the following variant? `S43N`
## Output -0.046

## Input What value of abundance fitness has been reported for the following variant? `Q22F`
## Output -0.097

## Input What value of abundance fitness has been reported for the following variant? `A28R`
## Output -0.027

## Input What value of abundance fitness has been reported for the following variant? `S38I`
## Output -0.107

## Input What value of abundance fitness has been reported for the following variant? `L48S`
## Output 0.028

## Input What value of abundance fitness has been reported for the following variant? `L62T`
## Output -0.501

## Input What value of abundance fitness has been reported for the following variant? `L27G`
## Output -0.049

## Input What value of abundance fitness has been reported for the following variant? `N54S`
## Output 0.042

## Input What value of abundance fitness has been reported for the following variant? `L62G`
## Output -0.744

## Input What value of abundance fitness has been reported for the following variant? `F52Q`
## Output -0.087

## Input What value of abundance fitness has been reported for the following variant? `Q13D`
## Output -0.04

## Input What value of abundance fitness has been reported for the following variant? `G34Y`
## Output -0.06

## Input What value of abundance fitness has been reported for the following variant? `E5H`
## Output 0.074

## Input What value of abundance fitness has been reported for the following variant? `Y33L`
## Output -0.024

## Input What value of abundance fitness has been reported for the following variant? `C56S`
## Output -0.029

## Input What value of abundance fitness has been reported for the following variant? `K64A`
## Output 0.081

## Input What value of abundance fitness has been reported for the following variant? `F11Y`
## Output -0.627

## Input What value of abundance fitness has been reported for the following variant? `V25M`
## Output -0.291

## Input What value of abundance fitness has been reported for the following variant? `R44M`
## Output -0.006

## Input What value of abundance fitness has been reported for the following variant? `R14K`
## Output 0.024

## Input What value of abundance fitness has been reported for the following variant? `Q6S`
## Output 0.001

## Input What value of abundance fitness has been reported for the following variant? `A28V`
## Output -0.01

## Input What value of abundance fitness has been reported for the following variant? `C56H`
## Output -0.082

## Input What value of abundance fitness has been reported for the following variant? `Q13R`
## Output -0.054

## Input What value of abundance fitness has been reported for the following variant? `L48C`
## Output 0.049

## Input What value of abundance fitness has been reported for the following variant? `S51F`
## Output -0.832

## Input What value of abundance fitness has been reported for the following variant? `I42C`
## Output -0.375

## Input What value of abundance fitness has been reported for the following variant? `K53W`
## Output -0.079

## Input What value of abundance fitness has been reported for the following variant? `C56F`
## Output -0.034

## Input What value of abundance fitness has been reported for the following variant? `F7Q`
## Output -0.676

## Input What value of abundance fitness has been reported for the following variant? `L48D`
## Output -0.27

## Input What value of abundance fitness has been reported for the following variant? `A69P`
## Output -0.15

## Input What value of abundance fitness has been reported for the following variant? `F37C`
## Output -0.06

## Input What value of abundance fitness has been reported for the following variant? `W65V`
## Output -0.198
